system: HT-29 colon cancer cells; experiment: Annexin V-FITC/PI flow cytometry apoptosis induction assay; type: cell-based, human; settings: 30 μg/mL, 24 h
For each record, write down the corresponding necrosis (dead cells).
One number for each entry, in %.

Below are worked cases with known answers.
Consider COc1c(C)cc(O)cc1C/C=C(\C)CC(=O)/C=C(\C)CCCC(C)C(=O)/C=C/C(C)(C)O (stereo not shown) . Its measured necrosis (dead cells) is 59.55

Consider COc1c(C)cc(O)cc1C/C=C(\C)CC(=O)/C=C(/C)CCCC(C)C(=O)/C=C/C(C)(C)O (stereo not drawn) [Compound 5, 6-cis-amentadione-1′-methyl ether] . Its measured necrosis (dead cells) is 72.75

Consider COc1c(C)cc(O)cc1C/C=C(\C)CC(=O)/C=C(/C)CCCC(C)(O)C(=O)/C=C/C(C)(C)O (stereo not shown) . Its measured necrosis (dead cells) is 31.22

Further cases:
Consider COc1c(C)cc(O)cc1/C=C/C(C)(O)CC(=O)/C=C(\C)CCCC(C)C(=O)/C=C/C(C)(C)O (stereo not shown) . Its measured necrosis (dead cells) is 20.12
